- System: A549
- test_description: Inhibition of PGF2alpha production in human A549 cells in presence of 50% fetal bovine serum
- Format: functional, cell-based
endpoint_name: IC50

{"smiles_structure": "CC(C)(O)Cc1ccc2c(c1)c1cc(OCCC3CC3)ccc1c1nc(-c3c(C#N)cc(F)cc3C#N)[nH]c21", "endpoint_name": "IC50", "reading": "> 40 µM"}
{"smiles_structure": "N#Cc1cccc(C#N)c1-c1nc2c3ccc(Cl)cc3c3ccccc3c2[nH]1", "endpoint_name": "IC50", "reading": "> 40 µM"}
{"smiles_structure": "CC(C)(O)C#Cc1ccc2c(c1)c1cc(Cl)ccc1c1nc(-c3c(C#N)cccc3C#N)[nH]c21", "endpoint_name": "IC50", "reading": "> 40 µM"}
